I'd appreciate it if you could supply growth values for the items below.
- System: T-47D breast
- assay-summary: NCI-60 one-dose screen, 48 h (100 = growth as untreated, 0 = no growth, -100 = all killed)
- applied-conditions: 10 µM unless noted
This is part of a sample that, as a whole, favours compounds with a hit. Of some 83,000 tested, about 20% had one in any assay.
Entry rule: numbers only, all in %.

Request the reported growth associated with COc1ccc(-c2nsc3c2NC(=O)CC3c2cccc(OC)c2)cc1 (stereo not given)
35.2

Request the reported growth associated with CSc1nc2c(c(=O)[nH]1)N=C1c3ccccc3C(=O)C1C(c1ccc(F)cc1)N2 (stereo not given)
72.9

Request the reported growth associated with Cc1ccc2cccc(Oc3ccc(Nc4ncnc5onc(-c6ccccc6)c45)cc3)c2n1
65.2

Request the reported growth associated with O=S(=O)(Nc1ncccn1)c1ccc(NC2Nc3nc4ccccc4nc3S2)cc1 (stereo not given)
101

Request the reported growth associated with O=C(Nc1ccc(Cl)cc1F)c1cc(F)ccc1O
-8.15

* * *

- System: NCI-H322M lung
- assay-summary: NCI-60 one-dose screen, 48 h (100 = growth as untreated, 0 = no growth, -100 = all killed)
- applied-conditions: 10 µM unless noted
About 83,000 compounds went through this panel and 20% of them were active in at least one assay; those are over-represented in the sample as a whole.
I'd appreciate it if you could supply growth values for the items below.
Entry rule: numbers only, all in %.

Request the reported growth associated with CCOC(=O)c1c(C=O)nc2ccccc2c1/C=C/c1ccc(Cl)cc1
99.8

Request the reported growth associated with COc1ccccc1C(=O)/C=C/c1ccccc1
86.1

Request the reported growth associated with Cn1cc([C@@H]2Nc3ccc4[nH]ncc4c3[C@H]3[C@H]4CCC(C4)[C@H]32)c(C(F)(F)F)n1
89.5

Request the reported growth associated with O=c1oc2ccc(F)cc2c(=O)n1-c1ccc(Cl)cc1F
7.62

Request the reported growth associated with CCC1=C[C@]2(C3CC(=O)N(c4ccccc4)C3=O)CC(C(C)(C)C)C[C@@H]2[C@@H]2C(=O)N(c3ccccc3)C(=O)[C@H]12 (stereo partly drawn)
69.3

Request the reported growth associated with COc1ccc(-c2cn[nH]c2-c2cc(OC)c(OC)c(OC)c2)cc1OCc1ccccc1
49.1

Request the reported growth associated with COc1cc2nc(NC3CCCC3)nc(NC3CCN(C(C)C)CC3)c2cc1OC
100

Request the reported growth associated with O=C(Nc1ccc(I)cc1F)c1cc(F)ccc1O
4.87

Request the reported growth associated with O=c1c2cc(F)ccc2sc2c(Nc3ccncc3)nc3ccccc3c12
81.4

Request the reported growth associated with O=C(CN1C=NC2C(N3CCOCC3)=NC=NC21)c1cccc2ccccc12 (stereo not drawn)
98.8

Request the reported growth associated with CCCCCCc1cc2cc(-c3csc(/C=C/c4ccccc4)n3)c(=O)oc2cc1O
63.9

Request the reported growth associated with COc1ccc(-c2nsc3c2NC(=O)CC3c2ccc3c(c2)OCCO3)cc1 (stereo not drawn)
74.8

Request the reported growth associated with Cn1cc(-c2ccc3ncc(-c4ccc(CC(=O)Nc5cc(C(C)(C)C)no5)cc4)nc3c2)cn1
20.6

Request the reported growth associated with CCc1ccc(CNCC(O)c2ccccc2)cc1 (stereo not drawn)
75.6

Request the reported growth associated with Cc1ccc(N=NC2C(=O)N(c3ccc(Cl)cc3)N(c3ccc(Cl)cc3)C2=O)cc1
97.4

Request the reported growth associated with CCN(CC)CCCNc1ccnc2cc3ccccc3cc12
76

Request the reported growth associated with O=C1Nc2ccccc2/C1=C/c1cccs1
84.6

Request the reported growth associated with COc1ccccc1N1CCN(C(CNS(=O)(=O)c2ccc(Cl)cc2)c2cccnc2)CC1 (stereo not drawn)
128

* * *

- Tested on: SR leukemia
- assay-summary: NCI-60 one-dose screen, 48 h
- applied-conditions: 10 µM unless noted
The panel holds about 83,000 compounds, 20% with a hit somewhere; the sample as a whole holds those more often. The source made the active and inactive calls. The calls were made as follows: active = growth percent below 10; inactive = the rest.
Choose the fitting class; nothing outside true (1) for active, false (0) for inactive is accepted.

Given CC1=CCC(OC(=O)C(C)(C)CCC(O)(C(=O)OC2(C(C)C)CCC3(C)OC3C2)C(C)C)(C(C)C)CC1 (stereo unspecified) , state the outcome it received in this test.
false (0)

Given CCC(C)(C)C(=O)O[C@H]1C[C@@H](C)C=C2C=C[C@H](C)[C@H](CC[C@@H]3CC=CC(=O)O3)[C@H]21 , state the outcome it received in this test.
true (1)

Given COc1cccc(C(=O)Cn2cc(/C=C(\C#N)S(=O)(=O)c3ccccc3)c3ccccc32)c1 , state the outcome it received in this test.
false (0)

Given Cn1nc(C(C)(C)C)cc1NC(=O)Cc1ccc(/C=C2\C(=O)Nc3ccccc32)cc1 , state the outcome it received in this test.
false (0)

Given Cc1cc2c(c(C)c1Cl)C(=O)/C(=C/c1cccc([N+](=O)[O-])c1)O2 , state the outcome it received in this test.
false (0)

Given O=C(/C=C/c1cccc(Cl)c1)OCc1ccc2cc1OCC#C/C=C\C#CCO2 , state the outcome it received in this test.
false (0)

* * *

- Tested on: NCI-H23 lung
- assay-summary: NCI-60 one-dose screen, 48 h (100 = growth as untreated, 0 = no growth, -100 = all killed)
- applied-conditions: 10 µM unless noted
About 83,000 compounds went through this panel and 20% of them were active in at least one assay; those are over-represented in the sample as a whole.
Threshold rule: growth greater than or equal to 90% is 1; below that, 0.

Say whether Clc1ccc(COc2ccc(Nc3ncnc4onc(-c5ccccc5)c34)cc2)cc1 shows growth of 90% or more.
0

Say whether COC(=O)/C(CCC=C(C)C)=C1\[C@@H](OC(C)=O)C[C@@]2(C)[C@H]1CC(=O)[C@H]1[C@@]3(C)CC[C@H](NCc4ccccc4)[C@@H](C)[C@@H]3CC[C@@]12C shows growth of 90% or more.
1

Say whether Cc1cccc2c(=O)c3c(sc12)c(NCCN)nc1ccccc13 shows growth of 90% or more.
0

Say whether O=C(COc1cc(O)c2c(=O)cc(-c3ccccc3)oc2c1)Nc1ccccc1C(F)(F)F shows growth of 90% or more.
0

Say whether Cc1nn(-c2nc3ccccc3[nH]2)c2c1C(c1ccc(OCC(N)=O)cc1)CC(=O)N2 (stereo unspecified) shows growth of 90% or more.
1

Say whether COc1ccc(CCN2CCC(CN(C)Cc3cnn(-c4ccccc4)c3)CC2)cc1 shows growth of 90% or more.
0

Say whether FC(F)(F)c1cccc(Nc2nc3ccccc3nc2Nc2cccc(C(F)(F)F)c2)c1 shows growth of 90% or more.
0

Say whether CC(=O)Nc1nc2c(s1)CCc1c-2cn(S(=O)(=O)c2ccccc2)c1-c1ccccc1 shows growth of 90% or more.
0

Say whether COc1cc(C2C3=C(COC3=O)N(CCO)c3cc4c(cc32)OCCO4)cc(OC)c1O (stereo unspecified) shows growth of 90% or more.
0

Say whether CCN(CCO)CCNc1ccc(C)c2sc3cc(Cl)ccc3c(=O)c12 shows growth of 90% or more.
0

Say whether COc1ccc(-c2cn3c(C(=O)Nc4ccccc4Cl)c(-c4ccccc4)c4c3n2CCCC4)cc1 shows growth of 90% or more.
0

Say whether OCCNc1nc(Nc2ccc(C3=NN(c4cc(Cl)cc(Cl)c4)C(c4ccc(C(F)(F)F)cc4)C3)cc2)nc(N2CCOCC2)n1 (stereo unspecified) shows growth of 90% or more.
0

Say whether C1=CC2(C=C1)OC21CCC2(C=CC3(C2)OC3C2CCCCC2)CC1 (stereo unspecified) shows growth of 90% or more.
1

* * *

- Tested on: K-562 leukemia
- assay-summary: NCI-60 one-dose screen, 48 h
- applied-conditions: 10 µM unless noted
The panel holds about 83,000 compounds, 20% with a hit somewhere; the sample as a whole holds those more often. Active and inactive are the calls of the source. Rule for the calls: active = growth percent below 10; inactive = the rest.
Choose the fitting class; nothing outside active, inactive is accepted.

Given O=C(CCc1nnc2sc(Cc3ccccc3Cl)nn12)c1nc2ncccc2[nH]1 , state the outcome it received in this test.
inactive

Given O=C(NCCCN1CCC(N2CCCCC2)CC1)C1=Cc2cc(Br)ccc2OC1 , state the outcome it received in this test.
inactive

Given CCOc1ccc2c(c1)CN(Cc1ccc(Cl)cc1)CO2 , state the outcome it received in this test.
inactive

Given C[n+]1c2ccccc2nc2ccc(NCCO)cc21 , state the outcome it received in this test.
inactive

Given CCOc1ccccc1CN1CCc2nc3cc(C(C)(C)C)[nH]n3c(=O)c2C1 , state the outcome it received in this test.
inactive

Given Cc1ccc(Nc2nc(N)c3ccccc3n2)cc1Cl , state the outcome it received in this test.
inactive

Given Clc1ccc(COc2ccc(Nc3ncnc4onc(-c5ccccc5)c34)cc2)cc1 , state the outcome it received in this test.
inactive

Given O=c1c(-c2nc3ccccc3[nH]2)cc2ccccc2n1Cc1cn(Cc2ccc(F)cc2)nn1 , state the outcome it received in this test.
inactive

Given Clc1ccc(Oc2ccc(Nc3ncnc4onc(-c5ccccc5)c34)cc2)c(Cl)c1 , state the outcome it received in this test.
inactive

Given O=C(Nc1ccc(Br)cc1F)c1cc(F)ccc1O , state the outcome it received in this test.
active

Given COc1cc(C(=O)Nc2ccc(-c3nc4ccccc4[nH]3)cc2)cc(OC)c1OC , state the outcome it received in this test.
inactive

Given CCN1C(=O)N(c2ccccc2)C2Nn3c(s/c(=C4\C(=O)N(C(C)C)c5ccccc54)c3=O)=NC21 (configuration not stated) , state the outcome it received in this test.
inactive

Given Nc1nonc1-n1nncc1-c1cccnc1 , state the outcome it received in this test.
inactive

Given O=C(O)CCC(=O)c1ccc(C2CCCCCC2)cc1 , state the outcome it received in this test.
inactive

Given CC(=O)c1ccc(NC(=O)Nc2ccc(S(=O)(=O)Nc3ccc(Cl)nn3)cc2)cc1 , state the outcome it received in this test.
inactive

Given O=C(Nc1ccc(F)c(Cl)c1)Nc1ccc(Cl)c(Cl)c1 , state the outcome it received in this test.
inactive

Given O=C(/C=C/c1ccc(Cl)cc1)c1ccc(Nc2nc(NCCO)nc(N3CCOCC3)n2)cc1 , state the outcome it received in this test.
inactive

Given CCCCC1CCc2cccc3c(SCC(=O)N(C)c4ccc(Cl)cc4)cc[n+]1c23 (configuration not stated) , state the outcome it received in this test.
inactive

Given Cc1nc(Nc2ccccn2)sc1C(=O)/C=C/c1ccc(Cl)cc1 , state the outcome it received in this test.
active

Given CN1C(=O)N(C)C2(c3ccccc3)OC(=S)NC12c1ccccc1 (configuration not stated) , state the outcome it received in this test.
inactive

Given CNCCNc1nc2ccccc2c2c(=O)c3cc(F)ccc3sc12 , state the outcome it received in this test.
active

Given COc1ccc(N(C)c2nc(N)nc3sc4c(c23)CCCC4)cc1 , state the outcome it received in this test.
active

Given NCCNc1nc2ccc(F)cc2c2c(=O)c3cc(F)ccc3sc12 , state the outcome it received in this test.
active

Given CC1=C(C(=O)OCC2CCN(C(=O)OC(C)(C)C)CC2)[C@H](c2cccc(Br)c2)C2=C(CC(C)(C)CC2=O)N1 , state the outcome it received in this test.
inactive

Given COC(=O)[C@H]1CCCN1C(=O)[C@H]1CCCN1C(=O)[C@H](Cc1c[nH]c2ccccc12)NC(=S)Nc1cc(C(F)(F)F)cc(C(F)(F)F)c1 , state the outcome it received in this test.
inactive

Given O=c1c2cc(F)ccc2sc2c(NCCN3CCCC3)nc3ccccc3c12 , state the outcome it received in this test.
active

Given CCOC(=O)c1sc(-c2ccc(OS(=O)(=O)c3cccs3)c(C=O)c2)nc1C , state the outcome it received in this test.
active
